Target: human recombinant Monoacylglycerol Lipase (Homo sapiens)
Sequence (Q99685 1-303): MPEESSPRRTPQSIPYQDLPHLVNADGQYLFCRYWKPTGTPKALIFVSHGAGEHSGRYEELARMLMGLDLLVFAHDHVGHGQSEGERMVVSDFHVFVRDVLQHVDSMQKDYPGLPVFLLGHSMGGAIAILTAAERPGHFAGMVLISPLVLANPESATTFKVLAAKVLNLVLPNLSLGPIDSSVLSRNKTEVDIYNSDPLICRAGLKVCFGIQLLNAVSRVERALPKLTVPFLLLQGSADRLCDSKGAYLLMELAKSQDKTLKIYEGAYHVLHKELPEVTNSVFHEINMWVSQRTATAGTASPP
Assay: MAGL inhibition enzymatic assay, fluorogenic substrate 7-HCA, IC50 at T=0 min or after 30 minute incubation (T=30 min)
Type: biochemical
Settings: T = 30 min (30 minute incubation); geometric mean of 2-4 determinations unless otherwise indicated; read-out: MAGL (T = 30 min) IC50
pIC50: −log10 of the molar value.
parameter-measured: pIC50

Here are 5 molecules together with their reported answers.
> print(dat)
                                   molecule  meas.value
1  O=C(O[C@H](CO)C(F)(F)F)N1CCC2(CC1)CC(c1cccnc1)CO2 (mixture of isomers)        7.49
2  Cn1nccc1-c1ccnc(OC2CCN(C(=O)O[C@H](CO)C(F)(F)F)CC2)c1        7.38
3  Cc1cc(S(=O)(=O)N2CCOC3(CCN(C(=O)O[C@H](CO)C(F)(F)F)CC3)C2)ccc1F        8.40
4  CN(C(=O)c1ccccc1)C1COC2(CCN(C(=O)O[C@H](CO)C(F)(F)F)CC2)C1 (single isomer, unassigned) [Example 99]        7.96
5  O=C(O[C@H](CO)C(F)(F)F)N1CCC2(CC1)CCN(C(=O)c1ccccc1)C2        7.92

a: C#Cc1ccc(S(=O)(=O)N2CCOC3(CCN(C(=O)O[C@H](CO)C(F)(F)F)CC3)C2)cc1
b: O=C1COC2(CCN(C(=O)O[C@H](CO)C(F)(F)F)CC2)CN1Cc1ccc(F)cc1
c: CN([C@@H]1COC2(CCN(C(=O)O[C@H](CO)C(F)(F)F)CC2)C1)S(=O)(=O)C1CC1
d: O=C(O[C@H](CO)C(F)(F)F)N1CCC2(CC1)CC(OCc1ccccc1)CO2 (mixture of isomers)
e: C#Cc1ccc(-n2ccc([C@H]3[C@@H]4CN(C(=O)O[C@H](CO)C(F)(F)F)C[C@@H]43)n2)cc1
Inquiry: List these items ordered by pIC50, big to small. Lab note: final answer is the ordered label list.
Reply text: e, a, d, c, b
(e: 9.00, a: 8.22, d: 7.92, c: 7.57, b: 6.96)

1: CN(C1COC2(CCN(C(=O)O[C@H](CO)C(F)(F)F)CC2)C1)S(=O)(=O)C1CCOCC1 (single isomer, unassigned) [Example 117]
2: O=C(O[C@H](CO)C(F)(F)F)N1CCC2(CC1)CC(N1Cc3ccccc3S1(=O)=O)CO2 (mixture of isomers)
Inquiry: Quick one: lower pIC50, 1 or 2 ? Answer by stating the label of the chosen item.
Reply text: 1
(1: 6.82, 2: 7.68)
